src = PubChem BioAssay (NCI)

System: SF-268 CNS
Test: NCI tumour cell line growth inhibition, 48 h
experimentalEndpoint: TGI

In the examples that follow, each entry is paired with its recorded TGI.
# TGI of `CSC(SC)=C1C(=O)NN=C1C` = > 100 µM

Lab note: OC1c2ccccc2[C@@H]2[C@H]1[C@@H](c1ccccc1)C1(Cc3ccccc3C1O)[C@H]2c1ccccc1 (some centres not stated) gave TGI of 24.1 µM

The recorded TGI for O=C1C2=C(c3ccccc31)C(c1cccc(Cl)c1)NC(=S)N2 (configuration not stated) is > 100 µM

TGI recorded for this compound, `CC1=COC(=O)c2ccccc2N1` , is > 100 µM

The measured TGI associated with O=C(O)CCC(NC(=O)c1ccc(Nc2nc3ccccc3nc2C(=O)O)cc1)C(=O)O (configuration not stated) reads > 100 µM

What the record says about `O=C1C=C(N2CCCC2)C=C(N2CCCC2)C1` : TGI is > 100 µM

The compound identified as CC12CC3CC/C(=N\O)C(C1)C3(N1CCOCC1)C/C2=N/O (configuration not stated) registered its TGI at > 100 µM

// TGI lookup, compound = `Cc1c2c(c(C)n1-c1ccccc1)C(=O)N(CCSC(=N)N)C2=O` , result: > 100 µM

---
Query `O=C1Nc2cccc3ncn(c23)C2=C1CCCC2` yields TGI of > 100 µM

Consider `COc1cc(-c2cc(C(=O)N3CCN(C(=O)c4ccccc4NCc4ccco4)CC3)nc3cc(-c4ccccc4)nn23)cc(OC)c1OC` . Its measured TGI is > 100 µM

Recorded result, `C[C@H](CCC1=NCCN1)[C@H]1CC[C@H]2[C@@H]3[C@H](O)C[C@@H]4C[C@H](O)CC[C@]4(C)[C@H]3CC[C@]12C` , TGI: 26 µM

Value of measured TGI for the entry `COC(=O)[C@@H]1C=C[C@@H](C#N)n2c(=O)n(-c3ccccc3)c(=O)n21` : > 100 µM

Briefly, TGI measured for C=CC1C2=C(C(=O)NCC2)C2OC(O)C3=C(CCNC3=O)C2C1C (configuration not stated) : > 100 µM

---

Tested on: RXF 393 renal
Assay: NCI tumour cell line growth inhibition, 48 h; in the data active = GI50 below about 0.43 µM; inactive = the rest
# output must be one of true (1) = active, false (0) = inactive

# input Tell me the recorded outcome of this test for `O=C(c1cccs1)c1c(C(F)(F)F)n([O-])c2ccc(C(F)(F)F)cc2[n+]1=O` .
# output true (1)

# input What call does the record list for `CCOC(=O)/N=c1\ss/c(=N\C(=S)N(C)C)n1-c1ccccc1` ?
# output false (0)

# input Recorded call for O=C(CCCc1c[nH]c2ccccc12)NC1CC(=O)c2c(Br)sc(Br)c21 (configuration not stated) ?
# output false (0)

Continuing:
# input Give the logged outcome of this assay for the following molecule: `CC(=O)c1ccc(Nc2cc(-n3ccnc3)nc3ccccc23)cc1`
# output false (0)

---

System: MALME-3M melanoma
Assay: NCI tumour cell line growth inhibition, 48 h
Property: TGI; scope: individual compounds

Use these answered entries as a reference point.
// sample ClC(Cl)(Cl)C1CCOC1n1nc2ccccc2n1 (stereo not given) , its TGI was > 100 µM

Recorded TGI (compound `NC(N)=NS(=O)(=O)c1ccc(NC(=O)c2cccc3c(Nc4ccc(S(=O)(=O)N=C(N)N)cc4)c4ccc(Cl)cc4nc23)cc1` ): > 100 µM

# compound `Cc1cc(S(N)(=O)=O)c(SCc2nc(N)nc(N(C)C)n2)cc1Cl` ; its TGI = > 10 µM

Lab note: CC(=O)OCC1OC(Nc2ccc3nc(C)n(-c4cccc(C)c4)c(=O)c3c2)C(OC(C)=O)C(OC(C)=O)C1OC(C)=O (stereo not given) gave TGI of > 62.5 µM

What the record says about `O=C1/C(=C\c2ccc(Cl)cc2)CN(C(=S)Nc2ccccc2)C/C1=C\c1ccc(Cl)cc1` : TGI is 4.86 µM

---
Lab book: TGI of O=C(O)c1cccc(S(=O)(=O)NN2C(=O)CSC2c2ccccc2)c1 (stereo not given) noted as > 100 µM

TGI in this record for `Nc1ccn(C=C=CCO)c(=O)n1` : > 1000 µM

---

System: A549 NSCLC
Experiment: NCI tumour cell line growth inhibition, 48 h
Items are presented alongside their recorded TGI.
Write the answer as a number in µM, unit excluded.

Example entries begin here.
Considering `O=C(c1cccs1)c1c(C(F)(F)F)n([O-])c2ccc(C(F)(F)F)cc2[n+]1=O` , its TGI with A549 NSCLC was recorded as 0.31

// returns TGI for `CCCCCCCCCCCCc1ccc(C(=O)/C=C/C(=O)O)cc1` with A549 NSCLC; value = 30.7

`COc1ccc(/C(=C/c2cc(OC)c(OC)c(OC)c2)[N+](=O)[O-])cc1` tested on A549 NSCLC gave TGI: 10.3

Simply: `COc1cc2c3c(n(C)c(=O)c2cc1OC)-c1cc2c(cc1/C3=C\CCCCN)OCO2` , A549 NSCLC, TGI = 27.4

Note to self: TGI of COc1cc2c(cc1OC)C(=O)C(Br)CC2 (stereo not drawn) with A549 NSCLC was 27.7

---
Record `OB([O][Hg][c]1ccccc1)[O][Hg][c]1ccccc1` / A549 NSCLC, TGI recorded as 4.64

Assay A549 NSCLC, sample CC(=O)O[C@H]1C(=O)[C@@]2(C)C([C@H](OC(=O)c3ccccc3)[C@]3(O)C[C@H](OC(=O)[C@H](O)[C@H](NC(=O)c4ccccc4)c4ccc(Cl)cc4)C(C)=C1C3(C)C)C1(OC(C)=O)CO[C@@H]1C[C@@H]2O (stereo partly drawn) , TGI read: 24.4

A549 NSCLC data for CC(O)c1c2c(cc3c1CC1(C3)Cc3cc4c(c(C(C)O)c3C1)CCC4)CCC2 (stereo not drawn) ; its TGI: 33.1

Value sought: TGI, system A549 NSCLC, item `COc1cc(O)c(C(=O)/C=C/c2ccccc2)c(OC)c1` . Result: 30

TGI on A549 NSCLC for CC(Cl)(/C=C/Cl)C(Cl)/C=C/C(Cl)(CCl)CBr (stereo not drawn) is 47.3

---

Tested on: PC-3 prostate
Test: NCI tumour cell line growth inhibition, 48 h
experimentalEndpoint: TGI (µM)
Give just the number in µM; leave the unit off.

TGI in this record for `CCCCCCCCCCCCc1ccc(C(=O)/C=C/C(=O)O)cc1` : 26.6

Sure, the documented TGI for COc1cc([C@@H]2c3cc4c(cc3[C@H](OC3OC5COC(C(C)C)OC5C(O)C3O)C3COC(=O)[C@@H]32)OCO4)cc(OC)c1O (stereo not given in full) is 14.4

Item: `O=S(=O)(c1ccc(NC(=S)N/N=C/c2ccccc2O)cc1)N1CCCCC1` | TGI: 21.1

// moving on: another record for TGI
Looking up CC(=O)Oc1ccc(N2C(=O)C3c4[nH]c5ccccc5c4C4CCC(C(C)(C)C)CC4C3C2=O)cc1 (stereo not given) , I see its TGI listed as 10.4

---

Test system: NCI-H460 lung
Experiment: NCI tumour cell line growth inhibition, 48 h
# maps each entry to its log10(TGI)
Give log10 of TGI, with TGI taken in µM.

Value of measured log10(TGI) for the entry CC(NC1=CC(=O)c2ncccc2C1=O)C(O)c1ccccc1 (stereo not given) : 0.51

Lab note: `COc1ccc2c(c1)c1nn(CCN(C)C)c3ccc4c(=O)n(CCN(C)C)c(=O)n2c4c13` gave log10(TGI) of -1.85

log10(TGI) for COc1cc([C@@H]2c3cc4c(cc3[C@H](OC3OC5COC(C(C)C)OC5C(O)C3O)C3COC(=O)[C@@H]32)OCO4)cc(OC)c1O (stereo not given in full) is 1.01

***
So, O=C(CCCc1c[nH]c2ccccc12)NC1CC(=O)c2c(Br)sc(Br)c21 (stereo not given) ? Its log10(TGI) was 1.59

For reference, reported log10(TGI) for `CC(=O)Oc1ccccc1[C@H]1CC(=O)C[C@H](c2ccccc2OC(C)=O)C12C(=O)c1ccccc1C2=O` stands at 1.78

Lab note: measured log10(TGI) of `CC1(C)N=C(N)N=C(N)N1c1cccc(/C=C/C=C/c2cccc([N+](=O)[O-])c2)c1` was 1.18

---

Test system: SNB-19 CNS
Assay: NCI tumour cell line growth inhibition, 48 h
experimentalEndpoint: TGI

Completed entries (count: 5):
The molecule identified as `CSc1c(C(=O)Nc2ccc(C)cc2)c(N)nn1-c1ccccc1` registered its TGI at > 100 µM

Entry under test: `COc1cc2cc(Oc3ccc(NC(=O)Nc4cccc(C(F)(F)F)c4)cc3)c(C)nc2cc1OCCN1CCCCC1` . Its TGI was 3.1 µM

// TGI value for CC(Cl)(/C=C/Cl)C(Cl)/C=C/C(Cl)(CCl)CBr (configuration not stated) : 27.3 µM

Lab note: measured TGI of COc1cc2c(cc1OC)C(=O)C(Br)CC2 (configuration not stated) was 21.3 µM

Given item `CSC(SC)=C1C(=O)NN=C1C` , the value recorded as its TGI is > 100 µM

***
// field: TGI; key: COc1cc(C2C(Cl)C(=O)N2n2cnc3ccccc3c2=O)cc(OC)c1OC (configuration not stated) ; value = > 100 µM

Recorded result, `Cc1cc2nc(N3C(=O)/C(=C/c4cccc([N+](=O)[O-])c4)N=C3c3ccccc3)sc2cc1C` , TGI: > 100 µM

Entry `O=C(Nc1n[nH]c2nc(-c3ccco3)c(Br)cc12)C1CC1` , TGI reported as > 25 µM
